// provenance: patent US8461328B2

# TARGET UNDER TEST: JAK2 (Homo sapiens, UniProt O60674)
# Construct: made in house; host or cells: SF9 insect cells (baculovirus)
# Sequence (O60674 812-1132): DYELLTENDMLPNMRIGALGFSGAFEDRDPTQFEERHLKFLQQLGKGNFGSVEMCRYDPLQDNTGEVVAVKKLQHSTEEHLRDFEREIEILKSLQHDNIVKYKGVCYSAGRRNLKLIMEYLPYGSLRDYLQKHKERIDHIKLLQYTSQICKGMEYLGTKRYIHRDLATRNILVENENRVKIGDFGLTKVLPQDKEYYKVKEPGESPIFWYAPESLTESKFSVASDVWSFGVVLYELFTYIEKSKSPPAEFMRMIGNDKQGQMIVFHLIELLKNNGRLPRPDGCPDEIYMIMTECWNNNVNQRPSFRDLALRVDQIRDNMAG
# ASSAY: JAK2 inhibition (Table 4)
# Type: biochemical
# CONDITION: read-out: JAK2 Ki
// values below are reported pKi
Bear in mind: pKi is minus log10 of a mol/L concentration; give just that figure.

Here are 3 compounds together with their reported answers.
{"COMPOUND": "CN1CCC(C(=O)N2CCC(n3cnc4cnc5[nH]ccc5c43)CC2)C1 (racemic) [Example 452]", "pKi": 5.93}
{"COMPOUND": "O=C(NC1CCC(n2cnc3cnc4[nH]ccc4c32)CC1)OCc1cccnc1 (stereo not shown) [Example 744]", "pKi": 7.75}
{"COMPOUND": "N#CCCN1CCC(n2c(CCNC(=O)c3ccc(F)cc3)nc3cnc4[nH]ccc4c32)CC1 [Example 373]", "pKi": 7.57}

Let's switch to this compound now.
Quote pKi reported for CC(O)c1nc2cnc3[nH]ccc3c2n1C1CCCN(C(=O)C2CCOC2)C1 (stereo not shown) [Example 786] please.
6.23

====

# TARGET UNDER TEST: JAK2 (Homo sapiens)
# Construct: made in house; host or cells: SF9 insect cells (baculovirus)
# ASSAY: JAK2 inhibition (Table 4)
# Format: biochemical
# CONDITION: read-out: JAK2 Ki
pKi: −log10 of the molar value.
Think of 7 as a floor: if pKi stands on it or above, it is yes; beneath it, no.

{"MOLECULE": "CCOC(=O)NCCc1nc2cnc3[nH]ccc3c2n1C1CCN(CC)CC1(F)F (single isomer, unassigned) [Example 679]", "DISCRETE LABEL": "yes"}
{"MOLECULE": "O=C([C@@H]1CCCN1C1CCC1)N1CCC(n2cnc3cnc4[nH]ccc4c32)CC1", "DISCRETE LABEL": "no"}
{"MOLECULE": "C[C@@H](O)c1nc2cnc3[nH]ccc3c2n1C1CCC(CCS(C)(=O)=O)CC1 (some centres unmarked)", "DISCRETE LABEL": "yes"}
{"MOLECULE": "OC1CCCC(n2nnc3cnc4[nH]ccc4c32)C1 (single isomer, unassigned) [Example 551]", "DISCRETE LABEL": "yes"}
{"MOLECULE": "c1cc2c(ncc3nnn(C4CCCOC4)c32)[nH]1 (single isomer, unassigned) [Example 459]", "DISCRETE LABEL": "yes"}
{"MOLECULE": "O=S(=O)(CCO)N1CCC(n2cnc3cnc4[nH]ccc4c32)CC1", "DISCRETE LABEL": "yes"}
{"MOLECULE": "Cc1nc2cnc3[nH]ccc3c2n1[C@H]1CC[C@@H](NCC(F)(F)F)C1", "DISCRETE LABEL": "yes"}
{"MOLECULE": "Cn1cncc1CN[C@H]1CC[C@H](n2cnc3cnc4[nH]ccc4c32)CC1", "DISCRETE LABEL": "yes"}

Could you please find out whether CCC(COC)n1cnc2cnc3[nH]ccc3c21 (racemic) has pKi that meets 7 or exceeds it?
no

Could you please find out whether `C[C@@H](O)c1nc2cnc3[nH]ccc3c2n1C1CCN(CC(F)F)CC1` has pKi that meets 7 or exceeds it?
yes

====

# TARGET UNDER TEST: JAK2 (Homo sapiens, UniProt O60674)
# Construct: made in house; host or cells: SF9 insect cells (baculovirus)
# ASSAY: JAK2 inhibition (Table 4)
# Assay type: biochemical
# CONDITION: read-out: JAK2 Ki
// values below are reported pKi
Bear in mind: pKi is minus log10 of a mol/L concentration; give just that figure.

{"COMPOUND": "OC1CCC(n2cnc3cnc4[nH]ccc4c32)C1 (stereo not drawn)", "TARGET UNDER TEST": "JAK2 (Homo sapiens, UniProt O60674)", "MEAS VALUE": 7.41}
{"COMPOUND": "c1cnc(N2CCC(n3cnc4cnc5[nH]ccc5c43)CC2)nc1", "TARGET UNDER TEST": "JAK2 (Homo sapiens, UniProt O60674)", "MEAS VALUE": 7.29}
{"COMPOUND": "N#Cc1ccc(CC(=O)N2CC[C@@H](n3cnc4cnc5[nH]ccc5c43)C2)cc1", "TARGET UNDER TEST": "JAK2 (Homo sapiens, UniProt O60674)", "MEAS VALUE": 6.76}

Let's switch to this compound now.
Quote pKi reported for `O=C(CN1CCCC1=O)N1CCC(n2cnc3cnc4[nH]ccc4c32)CC1` please.
6.94
